Reported MIC against P. mirabilis values follow for various substances
- Test system: Proteus mirabilis
- test-protocol: MIC against Gram-negative bacteria: Proteus mirabilis
- Format: cell-based
- run-parameters: Proteus mirabilis; 5×10^5 CFU/mL; 10 h cultivation at 37° C.
Answer in µg/mL, number only, no unit symbol.

> print(dat)
                                   substance  numeric.value
 1  PRT1423 (PVDPCFRANCEYQCQPLNQTSYLCVCAEGFAPIPHEPHRCQ; listed as Homo sapiens)           12.5
 2  PRT1357 (GQHSCPSDCNNLGQCVSGRCICNEGYSGEDCS; listed as Homo sapiens)           12.5
 3  PRT1446 (FLSPCVDDCGPYGQCKLLRTHNYLYAACECKAGWRGWGCT; listed as Homo sapiens)           12.5
 4  PRT1373 (STRSCPGGCRGRGQCLDGRCVCEDGYSGEDC; listed as Homo sapiens)             25
 5  PRT1440 (DKDECSKDNGGCQHECVNTMGSYMCQCRNGFVLHDNKHDCK; listed as Homo sapiens)             25
 6  PRT1405 (PTTQCIDPQCGGRGICIMGSCACNSGYKGESCE; listed as Homo sapiens)           12.5
 7  PRT1482 (LCSFGCGSGICIAPNVCSCQDGEQGATCP; listed as Homo sapiens)             50
 8  PRT1421 (ATQSCNDLCEHFCVPNPDQPGSYSCMCETGYRLAADQHRCE; listed as Homo sapiens)             25
 9  PRT1374 (GVRQCPNDCSQHGVCQDGVCICWEGYVSEDC; listed as Homo sapiens)           12.5
10  PRT1367 (YPACPENCSGHGECVRGVCQCHEDFMSEDCS; listed as Homo sapiens)           12.5

Consider the substance shown here: PRT1391 (PLPVCQEQCSGHGTFLLDAGVCSCDPKWTGSDCS; listed as Homo sapiens) What is its recorded MIC against P. mirabilis?
12.5

Which MIC against P. mirabilis reading was recorded for the substance PRT1457 (CQCHGHADNCDTTSQPYRCLCSQESFTEGLHCDRCLPLYNDKPFRQGDQVYAFNCKP; listed as Homo sapiens) ?
25

Query (substance): PRT1420 (GAWDCSVENGGCEHACNAIPGAPRCQCPAGAALQADGRSCT; listed as Homo sapiens) ; field requested: MIC against P. mirabilis
12.5

Given PRT1444 (HHIPCPEHYNGFCMHGKCEHSINMQEPSCRCDAGYTGQHCE; listed as Homo sapiens) , state its recorded MIC against P. mirabilis.
25

Item PRT1387 (IMDDCSTNCNGNGECISGHCHCFPGFLGPDCA; listed as Homo sapiens) has what recorded MIC against P. mirabilis?
25

====

substances and their reported MIC
- Test system: Enterobacter cloacae
- test-protocol: MIC against Gram-negative bacteria: Enterobacter cloacae
- Type: cell-based
- run-parameters: E. cloacae; 10 h cultivation at 37° C.
Answer in mg/L, number only, no unit symbol.

Consider the worked cases shown below.
> print(dat)
                                  substance  endpoint.name  scale.unit  numeric.value
1  PRT948 (DINECLSNPCSSEGSLDCIQLTNDYLCVCRSAFTGRHCE; listed as Homo sapiens)            MIC        mg/L             50
2  PRT975 (LVDWCSRQPCQNGGRCVQTGAYCLCPPGWSGRLCD; listed as Homo sapiens)            MIC        mg/L             25
3  PRT1017 (NPDNCVSHQCQNGGTCQDGLDTYTCLCPETWTGWDCS; listed as Homo sapiens)            MIC        mg/L           12.5
4  PRT899 (NINECASNPCLNQGTCIDDVAGYKCNCLLPYTGATCE; listed as Homo sapiens)            MIC        mg/L             50
5  PRT897 (DPNPCLSTPCKNAGTCHVVDRRGVADYACSCALGFSGPLCL; listed as Homo sapiens)            MIC        mg/L           12.5

# next substance below
Requested field: MIC. Item: PRT1007 (HVNPCESRPCQNGATCMAQPSGYLCQCAPGYDGQNCS; listed as Homo sapiens)
12.5
